# assayOverview: Plasma PK of ANEB-001 and THC, 30 mg or 10 mg oral Compound 1 with 21 mg THC (Example 4)
# Assay type: in vivo, human
# conditionContext: human, in vivo, 21 mg THC + 30 mg ANEB-001; 03H00M; read-out: THC in Plasma (concentration), Mean
measuredMetric: concentration at 3 h (ng/mL)
Record the value in ng/mL, omitting the unit from your answer.

Suppose we examine the compound CCCCCc1cc(O)c2c(c1)OC(C)(C)[C@@H]1CCC(C)=C[C@@H]21 [THC, Δ9-tetrahydrocannabinol] ; what concentration at 3 h value has been reported? 2.46

###

# assayedTarget: CB1 [CNR1] (Homo sapiens, UniProt P21554)
# Sequence (P21554 whole entry): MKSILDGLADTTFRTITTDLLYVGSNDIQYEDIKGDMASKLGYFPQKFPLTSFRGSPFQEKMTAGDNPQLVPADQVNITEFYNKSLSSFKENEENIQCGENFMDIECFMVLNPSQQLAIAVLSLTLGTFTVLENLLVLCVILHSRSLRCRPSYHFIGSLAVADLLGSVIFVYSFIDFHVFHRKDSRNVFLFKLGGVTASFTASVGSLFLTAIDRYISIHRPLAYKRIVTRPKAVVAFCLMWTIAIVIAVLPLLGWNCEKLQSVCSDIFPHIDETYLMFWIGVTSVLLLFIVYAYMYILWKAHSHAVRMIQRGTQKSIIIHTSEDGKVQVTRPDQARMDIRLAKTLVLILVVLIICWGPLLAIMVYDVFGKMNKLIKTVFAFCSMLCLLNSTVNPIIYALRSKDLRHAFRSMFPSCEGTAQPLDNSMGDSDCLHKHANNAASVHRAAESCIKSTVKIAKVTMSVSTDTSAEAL
# assayOverview: PathHunter GPCR Biosensor cAMP assay, CNR1 antagonist mode
# conditionContext: Gi cAMP, 20 μM Forskolin; EC80 0.0012 μM CP55940
measuredMetric: IC50 (nM)
Record the value in nM, omitting the unit from your answer.

1. CC(C)(NC(=O)N1CC(OC(c2ccc(Cl)cc2)c2ccccc2C(F)(F)F)C1)C(=O)O (centres unmarked) ... 383

Now look at this one.
Suppose we examine the compound CC(C)(CO)NC(=O)N1CC(OC(c2ccc(Cl)cc2)c2ccccc2C(F)(F)F)C1 (centres unmarked) ; what IC50 value has been reported? 45.6
